Measured log10 koff of individual entries
Measured on: T1, AAV5 (adeno-associated virus serotype 5)
T1 construct: also called adeno-associated virus serotype 5
Run description: SPR, AAV on CM5 chip
Values below are the log10 of the recorded koff, with s⁻¹ as the unit.

Binder	log10 koff
A4-H6 (VHH) VHH: VQLVESGGGLVQPGGSLRLSCAASGRGFSINTMGWFRQAPGKGRELVAIVTRGGTTYYADSVKGRFTISRDNSKNTVYLQMNSLRAEDTAVYYCHVDEVRQSSWTTSNLWGQGTLVTVSS	-2.25
A4-H2 (VHH) VHH: VQLQASGGGFVQPGGSLRLSCAASGRSFSINTMGWFRQAPGKEREFVAVVTRGGSTYYADSVKGRFTISRDNSKNTVYLQMNSLRAEDTATYYCHIDEVRQSSWTTSNIWGQGTQVTVSS	-2.86
A4-H1 (VHH) VHH: VQLVESGGGLVQPGGSLRLSCAASGRSFSINTMGWFRQAPGKGLEAVAIVTRGGSTYYADSVKGRFTISRDNSKNTLYLQMNSLRAEDTAVYYCHIDEVRQSSWTTSNIWGQGTLVTVSS	-2.82
A4-H5 (VHH) VHH: VQLQASGGGFVQPGGSLRLSCAASGRGFSINTMGWFRQAPGKERELVAVVTRGGTTYYADSVKGRFTISRDNSKNTVYLQMNSLRAEDTAVYYCHVDEVRQSSWTTSNLWGQGTQVTVSS	-2.82
A4-H4 (VHH) VHH: VQLVESGGGLVQPGGSLRLSCAASGSIFSINLMGWFRQAPGKGLELVAIITPGGNTYYADSVKGRFTISRDNSKNTVYLQMNSLRAEDTAVYYCHVDEVRQSSWTTSNLWGQGTLVTVSS	-3.49

Next up:
Give its log10 koff value. Item: A4-H3 (VHH) VHH: VQLQASGGGFVQPGGSLRLSCAASGSIFSINLMGWFRQAPGKERELVAVITPGGNTYYADSVKGRFTISRDNSKNTVYLQMNSLRAEDTATYYCHVDEVRQSSWTTSNLWGQGTQVTVSS
-3.32
